Catalogue of self-cleavage values
B1: CPEB3 Ribozyme (parent)
chain: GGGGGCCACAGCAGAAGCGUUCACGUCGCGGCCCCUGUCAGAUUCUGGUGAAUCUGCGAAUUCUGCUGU

Variants of: B1
TEST_PROTOCOL: self-cleavage, relative activity (ratio to wild type); higher = more cleavage; co-transcriptional
Respond with the number and no other words.

Recorded self-cleavage, per entry:
>>> reported_value("G5C C24A")
0.112
>>> reported_value("C27A C54U")
0.602
>>> reported_value("U53G C66U")
0.929
>>> reported_value("A40C U67C")
0.539
>>> reported_value("G3A U43G")
0.422
>>> reported_value("G14U C32G")
0.237

Task: Kindly indicate its recorded self-cleavage. Item: G11U U26G
Output: 0.635

Task: Give the reported self-cleavage for this variant. G1C C9A
Output: 0.251

Task: Note self-cleavage for the variant shown: G28U C33U
Output: 0.155

Task: Complete the entry with self-cleavage for C32G G58C
Output: 0.478

Task: Return the recorded self-cleavage value; entry: U26A C45G
Output: 0.895

Task: Using the record for G3C U46G , state its measured self-cleavage.
Output: 0.068

Task: Quickly give me recorded self-cleavage for A8G G37U
Output: 0.134

Task: Give recorded self-cleavage. C18A U44C
Output: 0.106

Task: Please give the documented self-cleavage of G28A G30U
Output: 0.155

Task: Quote self-cleavage reported for C9U G17U please.
Output: 0.832

Task: Give the measured self-cleavage for C9U G47C
Output: 1.06

Task: Return self-cleavage for the following variant: C54U U64G
Output: 0.924

Task: Report measured self-cleavage; entry is U43G G47A
Output: 0.95

Task: Give self-cleavage for C27A C66U
Output: 0.516

Origin of values: the RNAGym collection of RNA variant scans (doi:10.7554/elife.80360)
